These data points were gathered from patent US8030315B2.

Answer each item with its documented half-life.
- assay-overview: In vivo kinetic experiments (half-life)
- cond: SD, rat, blood, po, 10 mg/kg
Give a bare numeral; the unit h is implied.

Prompt: Recorded half-life for CC(C)(C)OC[C@@H]1C(=O)NCCN1C(=O)C[C@H](N)Cc1cc(F)c(F)cc1F.O=C(O)C(O)C(O)C(=O)O [Example 12] , please?
Response: 5.5

Prompt: Now consider N[C@@H](CC(=O)N1CCn2c(nnc2C(F)(F)F)C1)Cc1cc(F)c(F)cc1F [MK-0431, reference compound] .
Response: 4.8

Prompt: Now consider CC(C)(C)OC[C@@H]1C(=O)NCCN1C(=O)C[C@H](N)Cc1cc(F)c(F)cc1F.Cl [Example 1] .
Response: 7.9

Prompt: Now consider CCOC[C@@H]1C(=O)NCCN1C(=O)C[C@H](N)Cc1cc(F)c(F)cc1F.Cl [Example 3] .
Response: 7.6
